Let's go through some recorded pKd values for Chromobox protein homolog 2 (Homo sapiens) together.
Non-standard residues stand in square brackets, D forms with d. Residues, ends and D or L forms follow the SMILES beside them. *: point of attachment. X1 = O=C(O)c1cc(NC(=S)*)ccc1-c1c2ccc(=O)cc-2oc2cc(O)ccc12; Lys(Me3) = C[N+](C)(C)CCCC[C@H](N)C(=O)O; Benzoyl(4-Br) = O=C(c1ccc(Br)cc1)*; Gly(cPent) = N[C@H](C(=O)O)C1CCCC1; Abu = CC[C@H](N)C(=O)O; βAla = NCCC(=O)O
Answers are plain numbers, as −log10 of the molar value.

// known answers, use as guide
[
  {
    "Molecule": "CC[C@H](NC(=O)[C@H](Cc1ccccc1)NC(=O)c1ccc(Br)cc1)C(=O)N[C@H](C(=O)N[C@@H](CCCC[N+](C)(C)C)C(=O)N[C@@H](CO)C(=O)N[C@@H](CCC(=O)O)C(=O)N[C@@H](CCCCNC(=S)Nc1ccc(-c2c3ccc(=O)cc-3oc3cc(O)ccc23)c(C(=O)O)c1)C(N)=O)C1CCCC1 ({Benzoyl(4-Br)}-F[Abu][Gly(cPent)][Lys(Me3)]SEK(X1)-NH2)",
    "Recorded Measurement": 6.41
  },
  {
    "Molecule": "CC[C@H](NC(=O)[C@H](Cc1ccccc1)NC(=O)[C@H](Cc1ccccc1)NC(C)=O)C(=O)N[C@H](C(=O)N[C@@H](CCCC[N+](C)(C)C)C(=O)N[C@@H](CO)C(=O)N[C@@H](CCC(=O)O)C(=O)N[C@@H](CCCCNC(=S)Nc1ccc(-c2c3ccc(=O)cc-3oc3cc(O)ccc23)c(C(=O)O)c1)C(N)=O)C1CCCC1 (Ac-FF[Abu][Gly(cPent)][Lys(Me3)]SEK(X1)-NH2)",
    "Recorded Measurement": 5.00
  }
]

Task: Read off the recorded pKd for CC(C)C[C@H](NC(=O)[C@H](C)NC(=O)[C@H](Cc1ccccc1)NC(=O)[C@H](Cc1ccccc1)NC(=O)CCNC(=S)Nc1ccc(-c2c3ccc(=O)cc-3oc3cc(O)ccc23)c(C(=O)O)c1)C(=O)N[C@@H](CCCC[N+](C)(C)C)C(=O)N[C@@H](CO)C(N)=O ({X1-βAla}-FFAL[Lys(Me3)]S-NH2)
Result: 5.51
